- SYSTEM: kinases (Homo sapiens, UniProt P00519, H396P)
- Construct: purchased Eurofins/DiscoveRx; host or cells: E. coli BL21-derived host (T7 phage display) for most kinases; HEK-293 for the rest
- ASSAY_NAME: KINOMEscan kinase binding assay (Eurofins/DiscoveRx), % Ctrl
- ASSAY_CONTEXT: 1 μM; ABL1(H396P)-nonphosphorylated
MEASUREMENT_NAME: % Ctrl, ABL1(H396P)-nonphosphorylated (% Ctrl)
The answer is to be given in % Ctrl; state only the numeric part.

These solved cases illustrate the format of a correct answer.
[[record]]
smiles_repr = "Cc1cc2c([nH]1)/C=C1\\C(=O)Nc3ccc(cc31)-c1c(C)n[nH]c1CNCCN(C)C2=O"
measurement_name = "% Ctrl, ABL1(H396P)-nonphosphorylated"
measured_result = 0

[[record]]
smiles_repr = "Cc1cc2c([nH]1)/C=C1\\C(=O)Nc3cnc(cc31)-c1cnn(C)c1COCCNC2=O"
measurement_name = "% Ctrl, ABL1(H396P)-nonphosphorylated"
measured_result = 100

[[record]]
smiles_repr = "Cc1cc2c([nH]1)/C=C1\\C(=O)Nc3cc(Cl)c(cc31)OCCOCCN(C)C2=O"
measurement_name = "% Ctrl, ABL1(H396P)-nonphosphorylated"
measured_result = 0

[[record]]
smiles_repr = "Cc1cc2c([nH]1)/C=C1\\C(=O)Nc3cc(Cl)c(cc31)OCCO[C@@H](C(=O)N[C@@H]1CCNC1)CN(C)C2=O"
measurement_name = "% Ctrl, ABL1(H396P)-nonphosphorylated"
measured_result = 11

[[record]]
smiles_repr = "Cc1cc2c([nH]1)/C=C1\\C(=O)Nc3ccc(cc31)-c1ccnn1CCNCCNC2=O"
measurement_name = "% Ctrl, ABL1(H396P)-nonphosphorylated"
measured_result = 64

[[record]]
smiles_repr = "Cc1cc2c([nH]1)/C=C1\\C(=O)Nc3ccc(cc31)OCCOCCNC2=O"
measurement_name = "% Ctrl, ABL1(H396P)-nonphosphorylated"
measured_result = 87


Exam item: # input molecule: `Cc1cc2c([nH]1)/C=C1\C(=O)Nc3ccc(cc31)-c1c(noc1C)COCCN(C)C2=O` ; wanted: its % Ctrl, ABL1(H396P)-nonphosphorylated
Marked response: 28

Exam item: Then `Cc1cc2c([nH]1)/C=C1\C(=O)Nc3cnc(nc31)N(C)CCCOCCN(C)C2=O` ?
Marked response: 100
